# System: MDA-MB-435
# test_description: NCI tumour cell line growth inhibition, 48 h
observable: TGI

molecule	reading
NC(=O)c1ncn(C2OC(CO)C(O)C2O)n1 (stereo not given)	> 100 µM
COc1ccc(Cc2cc(OC)c(OC)c(OC)c2)cc1O	> 100 µM
CCN(CC)CCC(=O)c1ccc(Oc2ccc(C)cc2)cc1	32 µM
Cc1oncc1C(=O)Nc1ccc(C(F)(F)F)cc1	> 100 µM

Read the next record carefully.
Form: item C[C@@]12CCC[C@@](C)(C(=O)O)C1CC[C@]13C=C(CO)[C@](O)(CCC12)C3 (stereo not given in full) ; test system MDA-MB-435; TGI: > 100 µM

---

# System: HCT-15 colon
# test_description: NCI tumour cell line growth inhibition, 48 h
observable: TGI

Solved entries:
molecule	target_desc	TGI
Cn1c(O)c(C=N)c(=O)n(C)c1=O	HCT-15 colon	> 100 µM
O=CC(O)C(O)C(O)COc1cc(CO)cc2c1C(=O)c1ccccc1C2=O (stereo not drawn)	HCT-15 colon	> 100 µM

Could you now look at the following molecule, please?
// TGI value for NC(=S)SC1=NNC2(C(=O)N1)c1ccccc1-c1ccccc12 : > 10 µM

---

# Tested on: UACC-62 melanoma
# test_description: NCI tumour cell line growth inhibition, 48 h; in the data active = GI50 below about 0.43 µM; inactive = the rest
Select the matching outcome among active, inactive

Check out these entries, answers already filled in.
compound	assigned_label
CCc1ccc(/C(C#N)=C/C=C/c2ccccc2)cc1	inactive
C[C@H]1O[C@@H](O[C@H]2[C@@H](O)C[C@H](O[C@H]3[C@@H](O)C[C@H](O[C@H]4CC[C@]5(C)C6C[C@@H](O)[C@]7(C)[C@@H](C8=CC(=O)OC8)CC[C@]7(O)C6CC[C@@H]5C4)O[C@@H]3C)O[C@@H]2C)C[C@H](O)[C@@H]1O (some centres not stated)	active
CCCCC(SC(=S)N(CC)CC)C(=O)Nc1nc(CC(=O)OCC)cs1 (configuration not stated)	inactive
Cc1ccccc1NC(=O)N/C(N)=N/c1nc2ccccc2s1	active
NC(=O)c1cccc(N)c1	inactive
COc1cc2c3c(n(CCCN=[N+]=[N-])c(=O)c2cc1OC)-c1ccc(N)cc1C3=O	active

How did this test come out for COc1cc(C2=Nc3c/c(=C\c4c(O)[nH]c5ccc(Cl)cc45)ccc3=N2)cc(OC)c1OC ?
inactive

// outcome(item) with item = Oc1c(Cl)cc(C(c2cc(Cl)c(O)c(Cl)c2)C(c2cc(Cl)c(O)c(Cl)c2)c2cc(Cl)c(O)c(Cl)c2)cc1Cl
inactive

// return assay outcome for Nc1ccccc1C#Cc1ccccc1C#Cc1ccccc1N
inactive

---

# Tested on: LOX IMVI melanoma
# test_description: NCI tumour cell line growth inhibition, 48 h
Items are presented alongside their recorded TGI.

Some solved entries appear below for comparison.
compound	TGI
Nc1ccccc1S(=O)c1ccccc1 (stereo not drawn)	> 100 µM
CC(=O)N(/N=C\c1ccc([N+](=O)[O-])cc1)c1ccccc1	> 100 µM
N#Cc1ccc(Nc2cnc3cc(N)ccc3n2)cc1	> 100 µM
CC(=O)NC(ON1C(=O)COc2ccccc21)C(Cl)(Cl)Cl (stereo not drawn)	> 100 µM
COc1ccc(S(=O)(=O)Nc2cc(/C=C\c3cc(OC)c(OC)c(OC)c3)cc(OC)c2OC)cc1OC	> 100 µM
CCCCCCCCCCCCCCCCc1c(C(=O)OC)[nH]c(=S)[nH]c1=O	> 50 µM

Kindly note the recorded TGI for NC(=S)SC1=NNC2(C(=O)N1)c1ccccc1-c1ccccc12 , which is > 10 µM

In plain terms, Cc1oncc1C(=O)Nc1ccc(C(F)(F)F)cc1 has a documented TGI of > 100 µM

Recorded TGI (compound CSc1nc2nc(C)c(C)nc2c(=O)[nH]1 ): > 100 µM

Lab book: TGI of Clc1ccc(NCc2nnc(COc3ccc(OCc4nnc(CNc5ccc(Cl)cc5)o4)c(Cl)c3)o2)cc1 noted as > 100 µM

TGI for NC(=O)c1cccc(N)c1 is > 100 µM

Briefly, TGI measured for S=C1CNC(=S)CN1 : > 100 µM

// TGI lookup, compound = COc1cc(-c2nn(C)nc2-c2cc3ccccc3s2)cc(OC)c1OC , result: > 100 µM

---

# Test system: RXF 393 renal
# test_description: NCI tumour cell line growth inhibition, 48 h
Listing of entries alongside the reported TGI.

Solved cases (3 shown):
mol	TGI
NC(=O)Cc1ccccc1Oc1nccc(-c2c(-c3ccc(F)cc3)ncn2C2CCNCC2)n1	> 25 µM
CC1=NN(c2cccc(Cl)c2)C(=N/c2nc3ccccc3s2)/C1=C\C=C\c1ccccc1	> 100 µM
Nc1nc(N)nc(-c2cnc3ccccc3c2)n1	> 100 µM

Value sought: TGI, system RXF 393 renal, item CCOc1cc(NC(C)=O)ccc1C(=O)N/N=C/c1ccco1 . Result: > 100 µM

---

# Tested on: HOP-62 NSCLC
# test_description: NCI tumour cell line growth inhibition, 48 h
observable: TGI

Worked examples, 8 compounds total:
compound	reading
Cn1nc(-c2ccccc2)c(C(=O)/C=C/c2ccccc2)c(N2CCCCC2)c1=O	42.8 µM
O=C(COC(c1ccc(F)cc1)c1ccc(F)cc1)N1CCN(CCCc2ccccc2)CC1	19.4 µM
Cc1cc(C)c2c(=O)n(CN3CCN(c4ccccc4)CC3)sc2n1	> 100 µM
CNC(=S)NNC(=O)c1c(C)nc2sccn12	> 100 µM
CC(C)c1ccc2c(c1)[C@@]1(C)CC[C@H](C)C(C)(C)C1CC2 (stereo partly drawn)	35.2 µM
COC(=O)/C=C1/OC(c2ccc(Br)cc2)=C(Br)C1=O	17.5 µM
COc1ccc(Nc2nc(NCc3ccccc3)c3ccccc3n2)cc1	22.4 µM
CCc1ccc(/C(C#N)=C/C=C/c2ccccc2)cc1	> 100 µM

Per the record, COc1ccc(Cc2cc(OC)c(OC)c(OC)c2)cc1O has TGI of > 49.6 µM

The recorded TGI for entry CSc1nc(C)cc(N(C)c2ccccc2)n1 equals > 100 µM

So, CC(=O)Oc1ccn2nc(C)c(Cc3c(C)nn4ccc(OC(C)=O)cc34)c2c1 ? Its TGI was > 100 µM

TGI measured on COC(=O)C1C2CC3C(OC(=O)C31)C2I (stereo not drawn) = > 100 µM

// sample Cc1ccc(/C=C/C(=O)c2sc(C(N)=S)nc2C)cc1 , its TGI was > 100 µM

// N#Cc1cc2c(n(C3OC(CO)C(O)C(O)C3O)c1=S)CCCCC2 (stereo not drawn) : TGI value = > 100 µM

---

# Tested on: MALME-3M melanoma
# test_description: NCI tumour cell line growth inhibition, 48 h
Entries annotated with measured TGI

Here's what some known entries look like.
compound	reading
NC1=NN(c2ccccc2)C(=O)C1C(=O)C(=O)NC1C2CC3CC(C2)CC1C3 (configuration not stated)	> 100 µM
Cn1c(=O)c(Sc2ccccc2F)cc2cnc(NC3CCOCC3)nc21	> 25 µM
CC(C)[C@@H]1NC(=O)[C@]2(C)CSC(=N2)c2csc(n2)CNC(=O)C[C@@H](/C=C/CCS)OC1=O	> 100 µM
CN(C)C(=O)c1nnsc1NN=O	> 100 µM
C[C@@]12C[C@@H](c3ccccc3O1)N1CCSC1=N2	> 100 µM
O=C(O)C(F)(OC(F)(F)C(F)(F)C(F)(F)F)C(F)(F)F (configuration not stated)	> 100 µM
NC(N)=NS(=O)(=O)c1ccc(Nc2c3ccccc3nc3ccc(C(=O)Nc4ccc(S(N)(=O)=O)cc4)cc23)cc1	> 100 µM
O=C(O[C@H]1CN[C@H](C#Cc2cc3ncnc(Nc4ccc(Cc5ccccc5)cc4)c3s2)C1)N1CCOCC1	> 20.3 µM

Then this compound:
Field TGI (entry NCCCCN ) reads > 100 µM

---

A collection of compounds and their measured GI50
# Tested on: UO-31 renal
# test_description: NCI tumour cell line growth inhibition, 48 h

These solved cases illustrate the format of a correct answer.
mol	GI50
CCCCN(CCCC)c1cc(C(=O)CCCCCN)c2ccccc2n1	1850 nM
O=C(O[C@H]1CN[C@H](C#Cc2cc3ncnc(Nc4ccc(Cc5ccccc5)cc4)c3s2)C1)N1CCOCC1	3360 nM
CN(C)c1cc2c(cc1Sc1nc3c(N)nccc3n1CCNCC(C)(C)C)OCO2	640 nM
CN(C)c1cc2c(Nc3ccc4nc(Cc5ccccc5)[nH]c4c3)ncnc2cn1	12200 nM

GI50 reading for C=C1CCCC(C)(C)[C@@H]1CC/C(C)=C/Cn1c2cccc(=O)c-2nc2ccccc21 : 3910 nM

Noted for C=CC[Se]C(=O)c1ccccc1OC(C)=O : its GI50 reads 1480 nM

Note to self: GI50 recorded for O=C(/C=C\c1cccc([N+](=O)[O-])c1)c1ccccc1 was 1790 nM

Briefly, GI50 measured for Nc1ccccc1C#Cc1ccccc1C#Cc1ccccc1N : 6340 nM

The reported value for CCOc1ccc(/C=N/Nc2cc(C)nc3ccc(Cl)cc23)cc1 in terms of GI50 is 1630 nM
